test system: reserpine-induced blepharospasm; experiment: prevention of reserpine-induced blepharospasm in mice (antidepressant activity); type: in vivo; conditions: Mus musculus, po, 1 h, per os, 30 min before reserpine 2.4 mg/kg endoperitoneally, blepharospasm scored one hour after reserpine, read-out: BLEPH/ED50 (blepharospasm)
Observed property: ED50
Answer with the number, then the unit.

[[record]]
compound = "CN(C)CCCN1c2ccccc2CCc2ccccc21 [IMIPRAMINE, reference compound]"
assay_system = "reserpine-induced blepharospasm"
recorded_result = "24.1 mg/kg"


Query: // ED50 lookup, key: CNC/C=C(\Oc1ccc(Cl)c(Cl)c1)c1ccccc1
Reply: 1.2 mg/kg

Query: Moving on to CNC/C=C(\Oc1ccccc1)c1ccc2c(c1)OCO2
Reply: 2.2 mg/kg

Query: Moving on to CNC/C=C(\Oc1ccccc1Cl)c1ccccc1
Reply: 0.7 mg/kg

Query: Moving on to CN(C)C/C=C(\Oc1ccccc1)c1ccccc1
Reply: 0.5 mg/kg

Query: Moving on to CNC/C=C(\Oc1ccccc1)c1ccccc1
Reply: 0.8 mg/kg

Query: Moving on to CNC/C=C(/Oc1ccccc1)c1ccc2c(c1)OCO2
Reply: 1 mg/kg

Query: Moving on to CNC/C=C(/Oc1ccccc1Cl)c1ccccc1
Reply: 1.1 mg/kg

---

Test system: reserpine-induced hypothermia
Test: prevention of reserpine-induced hypothermia in mice (antidepressant activity)
Type: in vivo
Details: Mus musculus, po, 4 h, per os, 30 min before reserpine 2.4 mg/kg endoperitoneally, rectal temperature four hours after reserpine, read-out: HYPOTH/ED50 (hypothermia)
Protocol: The antidepressant activity was evaluated for example in mice on the basis of the prevention of reserpine-induced blepharospasm and hypothermia.
The entries below are paired with their reported log10 ED50.
Plainly stated, the numbers are log10 of ED50 given in mg/kg.

Query: // log10 ED50 lookup, key: CNC/C=C(\Oc1ccc(Cl)c(Cl)c1)c1ccccc1
Reply: 0.11

Query: Moving on to CN(C)CCCN1c2ccccc2CCc2ccccc21 [IMIPRAMINE, reference compound]
Reply: 1.01

Query: Moving on to CNC/C=C(/Oc1ccccc1)c1ccc2c(c1)OCO2
Reply: 0.15

Query: Moving on to CNC/C=C(\Oc1ccccc1)c1ccc2c(c1)OCO2
Reply: 0.38

Query: Moving on to CNC/C=C(/Oc1ccccc1Cl)c1ccccc1
Reply: 0.08

Query: Moving on to CNC/C=C(\Oc1ccccc1Cl)c1ccccc1
Reply: -0.70

Query: Moving on to CN(C)C/C=C(\Oc1ccccc1)c1ccccc1
Reply: 0.15

Query: Moving on to CNC/C=C(\Oc1ccccc1)c1ccccc1
Reply: -0.10
